biological target: BRAF V600E (Homo sapiens, UniProt P15056+Q96SW2, V600E); construct: knock-in of the HiBiT tag to the endogenous BRAF V600E locus; host or cells: A375.10 (A375 clonal line, CRISPR HiBiT knock-in at the endogenous BRAF V600E locus); test: BRAF V600E HiBiT Degradation Assay; format: cell-based
Sequence (P15056 whole entry V600E): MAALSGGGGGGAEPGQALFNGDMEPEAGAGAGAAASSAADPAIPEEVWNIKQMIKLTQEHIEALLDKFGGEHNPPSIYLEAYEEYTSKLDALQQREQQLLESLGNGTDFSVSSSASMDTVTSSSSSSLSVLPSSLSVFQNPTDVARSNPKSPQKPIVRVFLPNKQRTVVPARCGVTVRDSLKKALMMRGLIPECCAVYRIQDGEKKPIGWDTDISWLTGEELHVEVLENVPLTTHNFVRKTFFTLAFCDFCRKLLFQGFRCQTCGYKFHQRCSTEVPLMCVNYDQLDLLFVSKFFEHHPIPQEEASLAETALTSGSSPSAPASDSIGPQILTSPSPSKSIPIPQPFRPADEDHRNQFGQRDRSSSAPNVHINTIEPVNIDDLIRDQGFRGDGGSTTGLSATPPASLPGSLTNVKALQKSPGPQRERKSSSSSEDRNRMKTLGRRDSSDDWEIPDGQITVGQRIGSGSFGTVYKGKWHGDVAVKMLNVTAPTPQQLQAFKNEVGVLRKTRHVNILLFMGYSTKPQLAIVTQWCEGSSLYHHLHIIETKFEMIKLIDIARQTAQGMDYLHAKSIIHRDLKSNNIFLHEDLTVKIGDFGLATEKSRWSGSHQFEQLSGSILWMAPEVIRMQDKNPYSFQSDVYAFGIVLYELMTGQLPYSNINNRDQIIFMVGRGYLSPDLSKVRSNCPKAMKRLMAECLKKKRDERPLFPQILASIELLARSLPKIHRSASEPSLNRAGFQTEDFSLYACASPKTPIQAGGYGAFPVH
Sequence (Q96SW2 whole entry): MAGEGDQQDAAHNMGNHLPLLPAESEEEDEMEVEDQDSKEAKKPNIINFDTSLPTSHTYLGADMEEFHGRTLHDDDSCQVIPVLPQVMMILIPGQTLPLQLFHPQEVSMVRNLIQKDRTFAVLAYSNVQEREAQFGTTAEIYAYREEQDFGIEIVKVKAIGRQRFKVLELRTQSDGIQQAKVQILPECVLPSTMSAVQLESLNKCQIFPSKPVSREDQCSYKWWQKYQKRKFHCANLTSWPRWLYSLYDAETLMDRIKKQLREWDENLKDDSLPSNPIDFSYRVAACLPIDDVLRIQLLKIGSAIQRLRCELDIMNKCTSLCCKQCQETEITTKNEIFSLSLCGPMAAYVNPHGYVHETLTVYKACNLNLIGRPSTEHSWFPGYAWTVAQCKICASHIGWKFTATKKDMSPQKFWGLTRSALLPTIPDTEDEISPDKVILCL
Sequence (Q16531 whole entry partner): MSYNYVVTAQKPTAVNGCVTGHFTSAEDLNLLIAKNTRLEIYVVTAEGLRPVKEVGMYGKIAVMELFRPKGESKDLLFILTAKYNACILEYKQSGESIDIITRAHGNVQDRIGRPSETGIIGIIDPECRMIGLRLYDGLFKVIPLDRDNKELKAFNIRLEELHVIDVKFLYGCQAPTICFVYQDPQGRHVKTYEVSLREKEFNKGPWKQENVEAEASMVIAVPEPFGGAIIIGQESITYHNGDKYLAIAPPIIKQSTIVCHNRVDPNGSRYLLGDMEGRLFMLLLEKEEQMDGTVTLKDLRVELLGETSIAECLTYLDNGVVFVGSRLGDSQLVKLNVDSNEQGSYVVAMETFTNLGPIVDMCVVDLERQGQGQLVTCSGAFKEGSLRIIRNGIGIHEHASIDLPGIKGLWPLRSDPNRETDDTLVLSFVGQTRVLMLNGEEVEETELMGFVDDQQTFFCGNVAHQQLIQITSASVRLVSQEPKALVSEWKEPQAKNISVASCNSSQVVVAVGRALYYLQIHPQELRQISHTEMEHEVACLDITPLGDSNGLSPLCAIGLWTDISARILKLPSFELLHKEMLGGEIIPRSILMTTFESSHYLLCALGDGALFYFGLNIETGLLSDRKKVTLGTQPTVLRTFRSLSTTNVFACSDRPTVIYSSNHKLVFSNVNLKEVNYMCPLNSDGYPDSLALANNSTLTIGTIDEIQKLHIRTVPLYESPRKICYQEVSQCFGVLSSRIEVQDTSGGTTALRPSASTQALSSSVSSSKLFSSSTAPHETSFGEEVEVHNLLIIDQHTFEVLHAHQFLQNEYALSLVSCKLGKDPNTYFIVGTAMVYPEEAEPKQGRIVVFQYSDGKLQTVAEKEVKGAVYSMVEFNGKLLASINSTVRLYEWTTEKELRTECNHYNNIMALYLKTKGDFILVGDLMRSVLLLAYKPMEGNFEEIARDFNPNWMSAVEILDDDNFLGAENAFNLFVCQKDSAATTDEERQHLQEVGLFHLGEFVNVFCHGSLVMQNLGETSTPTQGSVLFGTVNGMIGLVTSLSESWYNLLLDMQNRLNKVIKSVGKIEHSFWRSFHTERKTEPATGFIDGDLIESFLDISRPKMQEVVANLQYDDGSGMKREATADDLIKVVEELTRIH
MEASURE NAME: HiBiT-Degradation A375.10 BRAF 2 hours Emax

Worked set:
| COMPOUND | VAL |
| --- | --- |
| CCN(C)S(=O)(=O)Nc1ccc(F)c(Oc2ccc3ncnc(OC4CC5(C4)CN(C4CCC(c6cc7c(cc6F)c(N6CCC(=O)NC6=O)nn7C)CC4)C5)c3c2)c1C#N (single isomer, unassigned) | ** (<90% and >50%) |
| CCN(C)S(=O)(=O)Nc1ccc(F)c(Oc2ccc3ncn([C@H]4COC5(CCC(N6CCC(c7cc8c(cc7F)c(N7CCC(=O)NC7=O)nn8C)C(F)(F)C6)CC5)C4)c(=O)c3c2)c1C#N (single isomer, unassigned) | *** (<=50%) |
| CCN(C)S(=O)(=O)Nc1ccc(F)c(Oc2ccc3ncn([C@@H]4COC5(CCN(C6CCC(c7cc8c(cc7F)c(N7CCC(=O)NC7=O)nn8C)CC6)CC5)C4)c(=O)c3c2F)c1C#N (single isomer, unassigned) | *** (<=50%) |
| Cn1nc(N2CCC(=O)NC2=O)c2cc(F)c(C3CCC(N4CCC5(CC4)CC(n4cnc6ccc(Oc7c(F)ccc(NS(=O)(=O)C8CCCC8)c7C#N)cc6c4=O)C5)CC3)cc21 (single isomer, unassigned) | *** (<=50%) |
| CCN(C)S(=O)(=O)Nc1ccc(F)c(Oc2ccc3ncn(C4CC5(CCN(C6CCC(c7cc8c(cc7F)c(N7CCC(=O)NC7=O)nn8C)CC6F)CC5)C4)c(=O)c3c2)c1C#N (single isomer, unassigned) [Compound 85] | *** (<=50%) |

Dear colleague, please send me the reported HiBiT-Degradation A375.10 BRAF 2 hours Emax for CCN(C)S(=O)(=O)Nc1ccc(F)c(Oc2ccc3ncc(OCC4CCN(C5CCC(c6cc7c(cc6F)c(N6CCC(=O)NC6=O)nn7C)CC5)CC4)nc3c2)c1C#N (single isomer, unassigned) when you can. ** (<90% and >50%)

Dear colleague, please send me the reported HiBiT-Degradation A375.10 BRAF 2 hours Emax for CCN(C)S(=O)(=O)Nc1ccc(F)c(Oc2ccc3ncn([C@H]4COC5(CCC(N6CC7(CN(c8ccc(NC9CCC(=O)NC9=O)cc8F)C7)C6)CC5)C4)c(=O)c3c2)c1C#N (single isomer, unassigned) when you can. ** (<90% and >50%)

Dear colleague, please send me the reported HiBiT-Degradation A375.10 BRAF 2 hours Emax for CCN(C)S(=O)(=O)Nc1ccc(F)c(Oc2ccc3ncc([C@H]4COC5(CCN(C6CCC(c7ccc(NC8CCC(=O)NC8=O)cc7F)CC6)CC5)C4)nc3c2)c1C#N (single isomer, unassigned) when you can. ** (<90% and >50%)

Dear colleague, please send me the reported HiBiT-Degradation A375.10 BRAF 2 hours Emax for CCN(C)S(=O)(=O)Nc1ccc(F)c(Oc2ccc3ncn(C4CC5(CCN(C6CCC(c7cc8c(cc7F)c(N7CCC(=O)NC7=O)nn8C)CC6F)CC5)C4)c(=O)c3c2)c1C#N (single isomer, unassigned) [Compound 84] when you can. *** (<=50%)
